Cited source: ChEMBL document CHEMBL4513216

experiment: Toxicity liver stage against HepG2, at 10uM; format: cell-based; set-up: test concentration 10 uM, cell line HepG2-A16-CD81EGFP; settings: human, HepG2-A16-CD81EGFP cells; read-out: INHIBITION
MEASURED ATTRIBUTE: cytotoxicity at 10 µM (%)
Dear colleague, please return just the value in %, with no unit written.

Observe how each entry below is paired with its result.
CCOCCCNC(=O)NCc1c(C)nn(C)c1C    -5.28
CN(Cc1ccc(F)cc1)CC1(O)CCN(C(=O)c2ccccc2)C1 (stereo unspecified)    -1.7
CCc1nnc2n1CCN(C(=O)COCCc1ccccc1)C2    -8.28
Cc1cnccc1N1CCN(C[C@]2(O)CCCN3CCCC[C@@H]32)CC1    10.4
CCc1nccn1CCC(=O)N1CC[C@@H](c2ccc(F)cc2)[C@H](O)C1    -7.79

The molecule FC(F)(F)C1CN(Cc2cccc(OCc3ccccn3)c2)CCO1 (stereo unspecified) showed cytotoxicity at 10 µM equal to 1.48

The molecule C[C@@H]1CN(Cc2ccc(-c3ccncc3)cc2F)CC(C(N)=O)O1 (stereo partly specified) showed cytotoxicity at 10 µM equal to 2.4

The molecule CC(Cn1cccn1)NC(=O)Nc1cccnc1 (stereo unspecified) showed cytotoxicity at 10 µM equal to -2.9

The molecule COc1ccccc1C1(CNc2snc(Cl)c2C#N)CCCC1 showed cytotoxicity at 10 µM equal to 31.6

The molecule Cc1ccc(C(=O)N2CCOC(c3ncc(CN(C)C)[nH]3)C2)cc1F (stereo unspecified) showed cytotoxicity at 10 µM equal to 0.388

The molecule COc1cccc(CN(C)C(=O)Nc2ccc3c(c2)OCCO3)c1 showed cytotoxicity at 10 µM equal to -0.627

The molecule Cc1cc(F)ccc1OC1(C(=O)O)CCN(Cc2ccncc2)CC1 showed cytotoxicity at 10 µM equal to -8.31

The molecule CN(C)S(=O)(=O)N1C[C@@H]2CN(Cc3ccoc3)CCO[C@@H]2C1 showed cytotoxicity at 10 µM equal to 12.2

###

Let's look at some compounds and their measured cytotoxicity at 10 µM.
experiment: Toxicity liver stage against HepG2, at 10uM; type: cell-based; parameters: test concentration 10 uM, cell line HepG2-A16-CD81EGFP; conditions: human, HepG2-A16-CD81EGFP cells; read-out: INHIBITION
Dear colleague, please return just the value in %, with no unit written.

Observe how each entry below is paired with its result.
O=C(CNc1ccc(F)cc1OCC(F)(F)F)NCC(F)(F)F    3.87
O=C(O)[C@@H]1CN(CC(=O)N2CCCCCC2)C[C@H]1c1ccc(F)cc1    -3.24
CN(C(=O)CN1CCCc2cc(F)cc(F)c21)c1ccccc1    14.2
CCc1nc(N2CCN(CCOC)CC2)c2cnn(C)c2n1    0.363
COCCCN1C(=O)CC[C@H]2CN(c3ccnc4ccccc34)CC[C@H]21    -3.63

Please examine the following record next.
The compound CC(NC(=O)NCCC1=CCCCC1)c1nncn1C (stereo unspecified) showed cytotoxicity at 10 µM equal to -11.7

###

experiment: Toxicity liver stage against HepG2, at 10uM; format: cell-based; parameters: test concentration 10 uM, cell line HepG2-A16-CD81EGFP; conditions: human, HepG2-A16-CD81EGFP cells; read-out: INHIBITION
Let's look at some molecules and their measured cytotoxicity at 10 µM.
Dear colleague, please return just the value in %, with no unit written.

Cc1n[nH]c(C)c1CCc1ccc(S(C)(=O)=O)cc1    6.29

The molecule FC1(F)CCN(Cc2ccncc2)CC12CCN(Cc1ccccn1)C2 (stereo unspecified) showed cytotoxicity at 10 µM equal to 10.2

The molecule Cc1csc2c(N3CCNC(C(=O)NCc4cccnc4)C3)ncnc12 (stereo unspecified) showed cytotoxicity at 10 µM equal to 1.74

The molecule COCC1CN(C(=O)Cc2ccc(F)cc2)Cc2ccnn2C1 (stereo unspecified) showed cytotoxicity at 10 µM equal to -73.9

The molecule COC1CN(C(=O)CC(C)C)CCC(=O)N(C)c2ccccc21 (stereo unspecified) showed cytotoxicity at 10 µM equal to -2.72

The molecule CN(C)c1cccc(C(=O)Nc2cnn(Cc3ccccn3)c2)c1 showed cytotoxicity at 10 µM equal to 4.81

###

assay: Toxicity liver stage against HepG2, at 10uM; assay type: cell-based; design: test concentration 10 uM, cell line HepG2-A16-CD81EGFP; conditions: human, HepG2-A16-CD81EGFP cells; read-out: INHIBITION
MEASURED ATTRIBUTE: cytotoxicity at 10 µM (%)
Dear colleague, please return just the value in %, with no unit written.

Observe how each entry below is paired with its result.
CN(Cc1ccc(N(C)C)cc1)C(=O)CS(=O)(=O)c1ccc(Cl)cc1    22.2
CCN1CC(NC(=O)Nc2nc(C)n(C(C)C)n2)CC1=O (stereo unspecified)    -5.58
Cc1cc(C)c(C#N)c(N2CCC3(CCCN(CCO)C3=O)C2)n1 (stereo unspecified)    0.854
Cn1ccnc1NC[C@@H]1CCC[C@@H]2CN(Cc3nccs3)C[C@@H]21    14
NC(=O)CCSc1ccccc1NCc1ccc(Cl)s1    7.74

The compound CCCN1CCCCC1C(=O)Nc1ccc(-c2nnc[nH]2)cc1 (stereo unspecified) showed cytotoxicity at 10 µM equal to 4.64

The compound Cn1cc(CN2CCCC3(COCCN(c4cccnc4)C3)C2)cn1 (stereo unspecified) showed cytotoxicity at 10 µM equal to -75.6

The compound CCOc1cc(C)nc(N2CCN(C(=O)CN(C)C3CC3)CC2)n1 showed cytotoxicity at 10 µM equal to 5.05

The compound COCC1CCN(S(=O)(=O)N2C[C@H](c3ccccc3)[C@@H](N)C2)CC1 showed cytotoxicity at 10 µM equal to 1.12

The compound CC(C)C(CCO)NC(=O)Nc1cc(F)ccc1-n1cccn1 (stereo unspecified) showed cytotoxicity at 10 µM equal to -4.06

The compound COC(=O)c1ccc(OCCn2cnc(C#N)n2)cc1 showed cytotoxicity at 10 µM equal to -2.01

###

experiment: Toxicity liver stage against HepG2, at 10uM; format: cell-based; parameters: test concentration 10 uM, cell line HepG2-A16-CD81EGFP; conditions: human, HepG2-A16-CD81EGFP cells; read-out: INHIBITION
MEASURED ATTRIBUTE: cytotoxicity at 10 µM (%)
Dear colleague, please return just the value in %, with no unit written.

Observe how each entry below is paired with its result.
CC(C)N1CC(C(=O)NCc2ccnc(-n3cccn3)c2)CC1=O (centres undefined)    -2.5
COc1ccccc1CC(=O)NS(=O)(=O)c1cncc(Br)c1    -12.7
CC(C)Cc1nc(COc2ccc(N(C)C(N)=O)cc2)no1    30.5
Cc1noc(C(C)C)c1C(=O)NCCCOC(C)C    -9.83
Cc1nc(N(Cc2ccncc2)CC2CCCO2)c2ccsc2n1 (centres undefined)    -155

The molecule Cc1nsc(NCc2ccc(S(=O)(=O)N(C)C(C)C)cc2)n1 showed cytotoxicity at 10 µM equal to 16.2

The molecule COCC(=O)NC(C)Cc1cccc(Cl)c1 (centres undefined) showed cytotoxicity at 10 µM equal to -8.72

The molecule Fc1ccc2[nH]c([C@H]3CCN(C4CCOCC4)C3)nc2c1 showed cytotoxicity at 10 µM equal to 1.9

The molecule CS(=O)(=O)NC[C@]12COC[C@H]1CN(C(=O)CC1CCCC1)C2 showed cytotoxicity at 10 µM equal to -101

###

assay: Toxicity liver stage against HepG2, at 10uM; format: cell-based; parameters: test concentration 10 uM, cell line HepG2-A16-CD81EGFP; conditions: human, HepG2-A16-CD81EGFP cells; read-out: INHIBITION
Let's look at some compounds and their measured cytotoxicity at 10 µM.
Dear colleague, please return just the value in %, with no unit written.

Observe how each entry below is paired with its result.
CC(NC(=O)NCC(C)(C)O)c1ccc(-c2ccncc2)cc1 (stereo unspecified)    7.15
CC(=O)N(Cc1noc(C)n1)C1CCN(Cc2ccncc2Cl)C1 (stereo unspecified)    5.87

The compound CCc1nc(CC)n(CC(=O)NCc2ccccc2C)n1 showed cytotoxicity at 10 µM equal to 15.2

The compound COc1ccc(-c2ccc(C3CNCCO3)nc2)cc1 (stereo unspecified) showed cytotoxicity at 10 µM equal to -8.88

The compound COc1ccccc1-c1ccc(NCc2cn3c(n2)SCC3)nn1 showed cytotoxicity at 10 µM equal to 8.62

The compound N#Cc1ccc(C(=O)NS(=O)(=O)c2ccc(C#N)c(Cl)c2)cc1 showed cytotoxicity at 10 µM equal to 5.44

###

Let's look at some compounds and their measured cytotoxicity at 10 µM.
assay: Toxicity liver stage against HepG2, at 10uM; format: cell-based; design: test concentration 10 uM, cell line HepG2-A16-CD81EGFP; conditions: human, HepG2-A16-CD81EGFP cells; read-out: INHIBITION
Dear colleague, please return just the value in %, with no unit written.

Observe how each entry below is paired with its result.
Cc1ncc2c(n1)CN(Cc1nc(-c3ccsc3)no1)CC2    -1.33
CCCC(=O)NC1CCCN(c2cncc(Br)c2)C1 (configuration not stated)    -38.5
COc1ccc(F)c(-c2cc(C)nc(N)n2)c1    5.47
CC(C)CC(NC(=O)CN(C)C(=O)c1ccco1)c1cccs1 (configuration not stated)    -1.24

The compound CCc1cccc(OCC(=O)NC(C)c2nnc3n2CCC3)c1 (configuration not stated) showed cytotoxicity at 10 µM equal to -3.78

The compound Clc1ccc(-c2nc(CN3CCCC3Cn3cncn3)co2)cc1 (configuration not stated) showed cytotoxicity at 10 µM equal to -1.66

The compound O=C(NCc1ccccc1)C1CN(c2ccccn2)CCO1 (configuration not stated) showed cytotoxicity at 10 µM equal to -2.44

The compound CN1CCCC(CNC(=O)CN(C)S(=O)(=O)c2cccnc2)C1 (configuration not stated) showed cytotoxicity at 10 µM equal to 9.45
